Experiment: chemical genetic growth profiling, strain panel (AID 1159580);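 also: tested at 20 µM; growth read once vehicle control cultures reached saturation at 30 °C; 1 = growth at the plate median or of vehicle wells; lower values mean less growth of the strain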
Conditions: S. cerevisiae deletion strains, growth OD, locus YLR342W, strain FKS1
Hit rate of the full screen: of about 5,500 compounds, about 2,000 (36%) were called active. Another 18% or so got no clear call; they are omitted. Rule as the data show it: active = normalized growth mostly below about 0.91 (no sharp cut-off); inconclusive = no clear call, values can overlap the other calls; inactive = mostly above about 0.92. The list shows a part of the results.
Outcome codes: y for active, n for inactive

| compound | label_value |
| --- | --- |
| N=c1ccn2c(n1)O[C@@H]1C2O[C@H](CO)[C@H]1O (stereo partly drawn) | n |
| CC(C[N+](C)(C)C)OC(N)=O (stereo not drawn) | n |
| Cc1cccc(C)c1OCC(C)N (stereo not drawn) | n |
| CC(C(=O)O)c1cccc(C(=O)c2ccccc2)c1 (stereo not drawn) | n |
| CN(C)c1ccc(C(=C2C=CC(=[N+](C)C)C=C2)c2ccc(N(C)C)cc2)cc1 | y |
| CC(=O)N[C@@H](CC(C)C)C(=O)O | n |
| C[N+](C)(C)CCOC(N)=O | n |
| CC(=O)OC(C)(C)[C@@H]1Cc2cc3ccc(=O)oc3cc2O1 | n |

====

Reported normalized growth values for the following compounds.
Test: chemical genetic growth profiling, strain panel (AID 1159580)
Settings: S. cerevisiae deletion strains, growth OD, locus YOR070C, strain gyp1, active compounds read low
In all, about 5,500 compounds went through this assay and about 2,000 (36%) were called active. Inconclusive results (about 18%) are left out. Some of the results follow.

| compound | normalized growth |
| --- | --- |
| O=C(O)c1cc2ccccc2c(Cc2c(O)c(C(=O)O)cc3ccccc23)c1O | 1 |
| COc1ccc2c(C)cc(=O)oc2c1 | 1 |
| NC(=O)c1ccc[n+]([C@@H]2O[C@H](COP(=O)([O-])OP(=O)(O)OC[C@H]3O[C@@H](n4cnc5c(N)ncnc54)[C@H](O)[C@@H]3O)[C@@H](O)[C@H]2O)c1 | 1.02 |
| NCCSSCCN | 0.999 |
| CN(C)c1ccc(C(=C2C=CC(=[N+](C)C)C=C2)c2ccc(N(C)C)cc2)cc1 | 0.466 |
| ClC1=C(Cl)C2(Cl)C3C4C=CC(C4)C3C1(Cl)C2(Cl)Cl (stereo unspecified) | 0.982 |
| C[C@H]1CC2C([C@@H](O)C[C@@]3(C)C2CC[C@]3(O)C(=O)CO)[C@@]2(C)C=CC(=O)C=C12 (stereo partly specified) | 1 |
| CC(NCCc1ccc(O)cc1)C(O)c1ccc(O)cc1 (stereo unspecified) | 0.976 |
| CC(=O)OC(C)(C)[C@@H]1Cc2cc3ccc(=O)oc3cc2O1 | 0.995 |
| COC1=C(OC)C(=O)C(C/C=C(\C)CC/C=C(\C)CC/C=C(\C)CC/C=C(/C)CC/C=C(\C)CC/C=C(\C)CC/C=C(\C)CC/C=C(\C)CC/C=C(\C)CCC=C(C)C)=C(C)C1=O | 0.975 |
| CC1=C(C/C=C(\C)CCC[C@H](C)CCC[C@H](C)CCCC(C)C)C(=O)c2ccccc2C1=O | 0.988 |
| CCN(CC)CCCC(C)Nc1ccnc2cc(Cl)ccc12 (stereo unspecified) | 1.02 |
| COCCc1ccc(OCC(O)CNC(C)C)cc1 (stereo unspecified) | 0.995 |
| O=C(O)c1cc2ccccc2[nH]1 | 0.999 |
| CN1CCC(=C2c3ccccc3CCc3sccc32)CC1 | 0.98 |
| CC(=O)O[C@H]1[C@@H]2[C@@H](OC(=O)Cc3ccccc3)[C@@H](C)C[C@]2(OC(C)=O)C(=O)/C(C)=C/[C@H]2[C@H](CC[C@@]13CO3)C2(C)C | 0.985 |
| CC1(C)OC(=O)NC1=O | 0.999 |
| CC(Oc1ccccc1)C(=O)N[C@@H]1C(=O)N2[C@@H]1SC(C)(C)[C@@H]2C(=O)O (stereo partly specified) | 0.992 |
| COP(=O)(OC)OC=C(Cl)Cl | 0.99 |
| CCN(CCO)CCCC(C)Nc1ccnc2cc(Cl)ccc12 (stereo unspecified) | 0.995 |
| CN(C)C(=S)SSC(=S)N(C)C | 0.0589 |

====

Experiment: chemical genetic growth profiling, strain panel (AID 1159580);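 also: tested at 20 µM; growth read once vehicle control cultures reached saturation at 30 °C; 1 = growth at the plate median or of vehicle wells; lower values mean less growth of the strain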
Details: S. cerevisiae deletion strains, growth OD, locus YHR205W, strain SCH9
Screen size: about 5,500 compounds; about 2,000 (36%) were called active. Inconclusive results (about 18%) are left out. No stated cut-off is given here; in the data, active means normalized growth mostly below about 0.91 (no sharp cut-off); inconclusive means no clear call, values can overlap the other calls; inactive means mostly above about 0.92. Some of the results follow.
Classes used: active, inactive

| compound | label_value |
| --- | --- |
| COc1cc2c(cc1OC)C(C)N(C(=O)c1sc3ccccc3c1Cl)CC2 (stereo not drawn) | inactive |
| Cc1ccc(OCC2SCCN2C(=O)c2ccc(C(F)(F)F)cc2)c([N+](=O)[O-])c1 (stereo not drawn) | inactive |
| OC1(C(F)(F)F)CC(C23CC4CC(CC(C4)C2)C3)=NN1 (stereo not drawn) | active |
| COc1ccc(NNC(=O)c2sc3ccccc3c2Cl)cc1 | inactive |
| Cc1c(Cc2ccc(F)cc2)c(=O)oc2cc(O)ccc12 | inactive |
| O=C(Oc1ccc(C(F)(F)F)cc1[N+](=O)[O-])c1cccc(Cl)c1 | active |
| CC(=O)CSc1nnc(-c2ccc(C(C)(C)C)cc2)n1-c1ccc(Cl)cc1 | inactive |
| N#CC(C#N)=C(SCc1c(Cl)cccc1Cl)SCc1c(Cl)cccc1Cl | inactive |

====

Experiment: chemical genetic growth profiling, strain panel (AID 1159580);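 also: tested at 20 µM; growth read once vehicle control cultures reached saturation at 30 °C; 1 = growth at the plate median or of vehicle wells; lower values mean less growth of the strain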
Details: S. cerevisiae deletion strains, growth OD, locus YJL092W, strain hpr5, active compounds read low
In all, about 5,500 compounds went through this assay and about 2,000 (36%) were called active. Roughly 18% stayed inconclusive and do not appear here. This is one part of the list.

| molecule | normalized growth |
| --- | --- |
| CCN(CC)CCCC(C)Nc1c2ccc(Cl)cc2nc2ccc(OC)cc12 (stereo unspecified) | 1.02 |
| CN1CCC(=C2c3ccccc3CC(=O)c3sccc32)CC1 | 0.977 |
| CC1(C)OC(=O)NC1=O | 0.989 |
| CCOC(=O)[C@H](CCc1ccccc1)N[C@H]1CCc2ccccc2N(CC(=O)O)C1=O | 0.988 |
| C=C(C)C1CNC(C(=O)O)C1CC(=O)O (stereo unspecified) | 0.989 |
| COc1cc2c(cc1OC)C(=O)OC2 | 0.999 |

====

Experiment: chemical genetic growth profiling, strain panel (AID 1159580);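 also: tested at 20 µM; growth read once vehicle control cultures reached saturation at 30 °C; 1 = growth at the plate median or of vehicle wells; lower values mean less growth of the strain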
Conditions: S. cerevisiae deletion strains, growth OD, locus YOR316C, strain cot1
Screen size: about 5,500 compounds; about 2,000 (36%) were called active. About 18% were inconclusive and are not listed. Cut-off read from the data, not from the text of the source: active = normalized growth mostly below about 0.91 (no sharp cut-off); inconclusive = no clear call, values can overlap the other calls; inactive = mostly above about 0.92. The list shows a part of the results.
Classes used: 1 = active, -1 = inactive

| compound | label_value |
| --- | --- |
| CCOC(=O)CCC(=O)O[C@H]1[C@H](O[C@@H]2[C@@H](C)[C@H](O[C@H]3C[C@@](C)(OC)[C@@H](O)[C@H](C)O3)[C@@H](C)C(=O)O[C@H](CC)[C@@](C)(O)[C@H](O)[C@@H](C)C(=O)[C@H](C)C[C@@]2(C)O)O[C@H](C)C[C@@H]1N(C)C | -1 |
| CN1CCC(=C2c3ccccc3CC(=O)c3sccc32)CC1 | -1 |
| COCCc1ccc(OCC(O)CNC(C)C)cc1 (centres undefined) | -1 |
| COc1ccc2c(c1OC)C(=O)O[C@H]2[C@H]1c2cc3c(cc2CCN1C)OCO3 | -1 |
| CS(=O)(=O)c1ccc(C2=C(c3ccccc3)C(=O)OC2)cc1 | -1 |
| NCC1CCC(C(=O)O)CC1 (centres undefined) | -1 |
| CO[C@H]1[C@H](O)[C@H](O[C@H]2CC[C@]3(C)C4CC[C@]5(C)C(C6=CC(=O)OC6)CC[C@]5(O)C4CC[C@@H]3C2)O[C@@H](C)[C@@H]1O (some centres undefined) | -1 |
| CCC(=O)O[C@H]1[C@H](O[C@@H]2[C@@H](C)[C@H](O[C@H]3C[C@@](C)(OC)[C@@H](O)[C@H](C)O3)[C@@H](C)C(=O)O[C@H](CC)[C@@](C)(O)[C@H](O)[C@@H](C)C(=O)[C@H](C)C[C@@]2(C)O)O[C@H](C)C[C@@H]1N(C)C | -1 |
| COc1ccc2c(c1OC)C(=O)O[C@@H]2[C@H]1c2cc3c(cc2CCN1C)OCO3 | -1 |
| CCOC(=O)c1c(C)cc(O)c(C=O)c1O | 1 |
| COc1cc2c(cc1OC)C1C(=O)c3c(O)cc4c(c3OC1CO2)C=CC(C)(C)O4 (centres undefined) | -1 |
| ClC1=C(Cl)C2(Cl)C3C4C=CC(C4)C3C1(Cl)C2(Cl)Cl (centres undefined) | -1 |
| ClC1=C(Cl)C2(Cl)C3C(Cl)C=CC3C1(Cl)C2(Cl)Cl (centres undefined) | -1 |
| C[C@H]1OC(n2cc(F)c(=O)[nH]c2=O)C(O)[C@@H]1O (some centres undefined) | -1 |
| CC(CCc1ccccc1)NC(C)C(O)c1ccc(O)cc1 (centres undefined) | -1 |
| CCOC(=O)C(Cc1ccc(O)cc1)NC(C)=O (centres undefined) | -1 |
| CCCCCCCCNC(C)C(O)c1ccc(SC(C)C)cc1 (centres undefined) | 1 |
| COc1cc2c(cc1OC)C(=O)OC2 | -1 |
| COc1cc(NC(C)CCCN)c2ncccc2c1 (centres undefined) | -1 |
| NCCSSCCN | -1 |
| C=C(C)C1CNC(C(=O)O)C1CC(=O)O (centres undefined) | -1 |
| O=C(O)C1(O)C[C@@H](O)C(O)[C@H](O)C1 (some centres undefined) | -1 |
| COc1cc2c(cc1OC)Cc1cc(OC)c(OC)cc1Cc1cc(OC)c(OC)cc1C2 | -1 |
| CN1CCCN=C1COC(=O)C(O)(c1ccccc1)C1CCCCC1 (centres undefined) | -1 |
| CC(=O)c1c(O)c(C)c(O)c2c1oc1c(C(C)=O)c(O)c(C)c(O)c12 | -1 |
| CC(N)CCCC(C)(C)O (centres undefined) | -1 |
| CN(C)CC/C=C1\c2ccccc2Sc2ccc(Cl)cc21 | -1 |
| CC(C)(O)[C@@H]1[C@H]2OC(=O)[C@@H]1[C@]1(O)C[C@H]3O[C@]34C(=O)O[C@H]2[C@]14C | -1 |
| COc1ccc2c3c1O[C@H]1C[C@@H](O)C=C[C@@]31CCN(C)C2 | -1 |
| CC(NCCc1ccc(O)cc1)C(O)c1ccc(O)cc1 (centres undefined) | -1 |
| CNC(C)[C@H](O)c1ccccc1 (some centres undefined) | -1 |
| CCOC(=O)C1(O)Oc2cc(OC)cc(OC)c2C(=O)C1c1ccccc1 (centres undefined) | -1 |
| COC1=C(OC)C(=O)C(C/C=C(\C)CC/C=C(\C)CC/C=C(\C)CC/C=C(/C)CC/C=C(\C)CC/C=C(\C)CC/C=C(\C)CC/C=C(\C)CC/C=C(\C)CCC=C(C)C)=C(C)C1=O | -1 |
| COc1cc(NS(=O)(=O)c2ccc(N)cc2)nc(OC)n1 | -1 |
| COC1=CC(=O)C[C@@H](C)[C@]12Oc1c(Cl)c(OC)cc(OC)c1C2=O | -1 |
| c1cncc(C2CCCCN2)c1 (centres undefined) | -1 |
| NC(=O)c1ccc[n+]([C@@H]2O[C@H](COP(=O)([O-])OP(=O)(O)OC[C@H]3O[C@@H](n4cnc5c(N)ncnc54)[C@H](O)[C@@H]3O)[C@@H](O)[C@H]2O)c1 | -1 |
| C=C1C2CC[C@H]3[C@]4(C)C[C@H](OC5OC(CO)C(OS(=O)(=O)O)C(OS(=O)(=O)O)C5OC(=O)CC(C)C)C[C@@H](C(=O)O)[C@H]4CC[C@]3(C2)[C@H]1O (some centres undefined) | -1 |
| CC(Oc1ccccc1)C(=O)N[C@@H]1C(=O)N2[C@@H]1SC(C)(C)[C@@H]2C(=O)O (some centres undefined) | -1 |
